All values here come from patent US20090227619A1.

test system: PLA-801; assay: In vitro cytotoxicity, IC50 by MTT method, PLA-801; assay type: cell-based; details: PLA-801 cell strain; read-out: IC50 PLA-801
Sorting guide: entries reporting IC50 beneath 200 µM go in the rule met pile, the rest go in the rule not met pile.

Examples with answers:
Incoming: Identify whether the compound CCCCn1c2ccccc2c2ccncc21 [Compound 83, 9-n-butyl-β-carboline] records IC50 below 200 µM.
Outgoing: rule met

Incoming: And CCCCOC(=O)c1cc2c3ccccc3n(Cc3ccccc3)c2cn1 [Compound 41, butyl 9-benzyl-β-carboline-3-carboxylate] ?
Outgoing: rule not met

More entries:
Incoming: Problem: For the compound CCn1c2ccccc2c2cc(C(=O)O)nc(-c3ccccc3)c21 [Compound 79] , is IC50 under 200 µM?
Outgoing: rule met

Incoming: Okay, and Cc1nc(C(=O)O)cc2c3ccccc3n(C)c12 [Compound 62] ?
Outgoing: rule not met

Incoming: Likewise for CCOC(=O)c1cc2c3ccccc3n(CC(=O)c3ccccc3)c2cn1 [Compound 47] ?
Outgoing: rule not met

Incoming: Thanks! And CCCc1nc(C(=O)OCC)cc2c3ccccc3n(CC)c12 [Compound 69] ?
Outgoing: rule not met

* * *

test system: S180 sarcoma; details: S180 sarcoma; Dosage 100 (mg/ml), ip × 10qd; second time
Measured Body weight of the animals, end, Second time, listed per entry for reference.
Express the result in g but write the number alone.

Check out these entries, answers already filled in.
Incoming: Need Body weight of the animals, end, Second time, item `O=C(O)c1cc2c(cn1)[nH]c1ccccc12`
Outgoing: 25.3

Incoming: And then OCc1cc2c3ccccc3n(Cc3ccccc3)c2cn1 [Compound 42, 9-benzyl-3-hydroxymethyl-β-carboline] , what is it?
Outgoing: 25.1

Incoming: Proceed to CCOC(=O)c1cc2c3ccccc3n(Cc3ccccc3)c2cn1 [Compound 33, ethyl 9-benzyl-β-carboline-3-carboxylate]
Outgoing: 25.1

Incoming: Please give the result for `c1ccc(Cn2c3ccccc3c3ccncc32)cc1` too.
Outgoing: 25.0

Incoming: Same read-out for `CCCCn1c2ccccc2c2cc(C(=O)O)ncc21` ?
Outgoing: 25.5

More entries:
Incoming: Bench note: what Body weight of the animals, end, Second time did `O=C(O)c1cc2c3ccccc3n(CCCc3ccccc3)c2cn1` show?
Outgoing: 26.0

Incoming: Then this molecule: `CCOC(=O)Nc1cc2c3ccccc3n(Cc3ccccc3)c2cn1`
Outgoing: 24.9

* * *

tested on: PLA-801; assay: In vitro cytotoxicity, IC50 by MTT method, PLA-801; type: cell-based; conditions: read-out: IC50 PLA-801
measured-endpoint: IC50 (µM)
Give just the number in µM; leave the unit off.

Incoming: Fill in: IC50 of `c1ccc2c(c1)[nH]c1cnccc12` is ___
Outgoing: 20

* * *

Body weight of the animals, beginning, First time by entry:
tested on: Lewis lung cancer; conditions: Lewis lung cancer; Dosage 100, ip × 10qd; first time;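 also: mice implanted subcutaneously in the axilla with Lewis lung tumor cells, treated starting the following day, killed roughly three weeks after implantation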

The cases that follow already have their Body weight of the animals, beginning, First time on record.
Incoming: Dear colleague, I am looking for the recorded Body weight of the animals, beginning, First time of the following molecule: CCOC(=O)c1cc2c(cn1)[nH]c1ccccc12 [Compound 10, ethyl β-carboline-3-carboxylate]
Outgoing: 20.3 g

Incoming: OCc1cc2c3ccccc3n(Cc3ccccc3)c2cn1 [Compound 42, 9-benzyl-3-hydroxymethyl-β-carboline] ?
Outgoing: 20.3 g

Incoming: For c1ccc(Cn2c3ccccc3c3ccncc32)cc1 [Compound 84, 9-Benzyl-β-carboline] then?
Outgoing: 18.5 g

Continuing:
Incoming: Suppose we examine the molecule CCOC(=O)c1cc2c3ccccc3n(Cc3ccccc3)c2cn1 [Compound 33, ethyl 9-benzyl-β-carboline-3-carboxylate] ; what Body weight of the animals, beginning, First time value has been reported?
Outgoing: 19.9 g
